The origin of these recorded values is paper PMC11662656.

# Target or system: T1, Loc1p (3-15) (Saccharomyces cerevisiae, UniProt P43586 3-15)
# T1 chain: PKKPSKRQNLRRE
# Method summary: NMR (1H-15N HSQC titration); range over peptide signals; EMSA: 20 mM HEPES pH 7.8, 200 mM NaCl, 2 mM MgCl2, 2 mM DTT, 4% glycerol, 25 C, 5 nM RNA, 100 ug/ml tRNA (omitted in competition); NMR: 20 mM Na phosphate pH 7.4, 50 mM NaCl, 278 K
# Particulars: protein: recombinant; tags: GST removed by thrombin (15N,13C sample); hairpin, 11 bp stem, GAAA loop
pKd: −log10 of the molar value.
Property label: pKd

Looking up UCUCUGGUUAGGAAACUAACUAGGGA (structured_RNA) [dsRNA tetraloop] , I found its pKd recorded as ~4.13
